Target: Androgen Receptor (Homo sapiens, UniProt P10275)
Construct: endogenous in cells; host or cells: VCaP cells
Assay: Androgen Receptor ELISA assay (PathScan AR ELISA) in VCaP cells: AR degradation, Dmax and DC50
Assay type: cell-based
Conditions: read-out: VCaP DC50; VCaP cells; Table 34
OBSERVABLE: DC50

SMILES CODE	OBSERVABLE	OBS VALUE
Cc1n[nH]cc1-c1ccc(CNC(=O)[C@@H]2C[C@@H](O)CN2C(=O)[C@@H](NC(=O)COCCCOCCCCOc2ccc(N3C(=S)N(c4ccc(C#N)c(C(F)(F)F)c4)C(=O)C3(C)C)cc2)C(C)(C)C)cc1	DC50	51 to 500 nM
Cc1ncsc1-c1ccc(CNC(=O)[C@@H]2C[C@@H](O)CN2C(=O)[C@@H](NC(=O)COCCCOCCCCOc2cccc(N3C(=S)N(c4ccc(C#N)c(C(F)(F)F)c4)C(=O)C3(C)C)c2)C(C)(C)C)cc1	DC50	< 50 nM

====

Readings of Dmax for the listed compounds
Molecular target: Androgen Receptor (Homo sapiens, UniProt P10275)
Construct: endogenous in cells; host or cells: VCaP cells
Assay: Androgen Receptor ELISA assay (PathScan AR ELISA) in VCaP cells: AR degradation, Dmax and DC50
Format: cell-based
Conditions: VCaP, read-out: VCaP Dmax (%), VCaP cells; Table 36

COMPOUND	Dmax
Cc1ncsc1-c1ccc([C@H](C)NC(=O)[C@@H]2C[C@@H](O)CN2C(=O)[C@@H](NC(=O)COCCCCOc2ccc(C(=O)N[C@H]3C(C)(C)[C@H](Oc4ccc(C#N)c(C(F)(F)F)c4)C3(C)C)cc2)C(C)(C)C)cc1 [Example 641]	> 71%
Cc1ncsc1-c1ccc([C@H](C)NC(=O)[C@@H]2C[C@@H](O)CN2C(=O)[C@@H](NC(=O)CN2CCC(O[C@H]3C[C@H](Nc4ccc(C(=O)N[C@H]5C(C)(C)[C@H](Oc6ccc(C#N)c(Cl)c6)C5(C)C)cc4F)C3)CC2)C(C)(C)C)cc1 [Example 706]	> 71%
Cc1ncsc1-c1ccc(CNC(=O)[C@@H]2C[C@@H](O)CN2C(=O)[C@@H](C(C)C)N2Cc3ccc(N4CCN(CCCc5ccc(C(=O)N[C@H]6C(C)(C)[C@H](Oc7ccc(C#N)c(C(F)(F)F)c7)C6(C)C)cc5)CC4)cc3C2=O)cc1 [Example 761]	< 25%
Cc1ncsc1-c1ccc([C@H](C)NC(=O)[C@@H]2C[C@@H](O)CN2C(=O)[C@@H](NC(=O)COCCCCCc2ccc(C(=O)N[C@H]3C(C)(C)[C@H](Oc4ccc(C#N)c(C(F)(F)F)c4)C3(C)C)cc2)C(C)(C)C)cc1 [Example 657]	51 to 70%
Cc1ncsc1-c1ccc([C@H](C)NC(=O)[C@@H]2C[C@@H](O)CN2C(=O)[C@@H](NC(=O)COCCCOCCCCCOc2ccc(C(=O)N[C@H]3C(C)(C)[C@H](Oc4ccc(C#N)c(Cl)c4)C3(C)C)cc2)C(C)(C)C)cc1 [Example 635]	51 to 70%
CC(C)[C@H](C(=O)N1C[C@H](O)C[C@H]1C(=O)N[C@@H](C)c1ccc(C#N)cc1)c1cc(OCCN2CCN(c3ccc(C(=O)N[C@H]4C(C)(C)[C@H](Oc5ccc(C#N)c(Cl)c5)C4(C)C)cn3)CC2)no1 [Example 696]	< 25%
Cc1ncsc1-c1ccc([C@H](CO)NC(=O)[C@@H]2C[C@@H](O)CN2C(=O)[C@@H](NC(=O)COCCN2[C@H](C)CN(c3ccc(C(=O)N[C@H]4C(C)(C)[C@H](Oc5ccc(C#N)c(Cl)c5)C4(C)C)cn3)C[C@@H]2C)C(C)(C)C)cc1 [Example 826]	> 71%
Cc1ncsc1-c1ccc([C@H](C)NC(=O)[C@@H]2C[C@@H](O)CN2C(=O)[C@H](C(C)C)n2cc(-c3ccnc(OC4CN(c5ncc(C(=O)NC6C(C)(C)C(Oc7ccc(C#N)c(Cl)c7)C6(C)C)cn5)C4)c3)cn2)cc1 (stereo partly shown) [Example 604]	51 to 70%
Cc1ncsc1-c1ccc([C@H](C)NC(=O)[C@@H]2C[C@@H](O)CN2C(=O)[C@@H](NC(=O)CN2CCN(CCCCN3CCN(c4ccc(C(=O)N[C@H]5C(C)(C)[C@H](Oc6ccc(C#N)c(Cl)c6)C5(C)C)cn4)CC3)CC2)C(C)(C)C)cc1 [Example 804]	51 to 70%
Cc1ncsc1-c1ccc([C@H](C)NC(=O)[C@@H]2C[C@@H](O)CN2C(=O)[C@@H](NC(=O)COCCN(CCCc2ccc(C(=O)N[C@H]3C(C)(C)[C@H](Oc4ccc(C#N)c(Cl)c4)C3(C)C)nc2)CCC(F)(F)F)C(C)(C)C)cc1 [Example 699]	26 to 50%
Cc1ncsc1-c1ccc([C@H](C)NC(=O)[C@@H]2C[C@@H](O)CN2C(=O)[C@@H](NC(=O)COCCN2CCN(c3ccc(C(=O)N[C@H]4C(C)(C)[C@H](Oc5ccc(C#N)c(Cl)c5)C4(C)C)cc3)CC2)C(C)(C)O)cc1 [Example 660]	26 to 50%
Cc1ncsc1-c1ccc([C@H](C)NC(=O)[C@@H]2C[C@@H](O)CN2C(=O)[C@@H](c2cc(CCCCN3CCN(c4ccc(C(=O)N[C@H]5C(C)(C)[C@H](Oc6ccc(C#N)c(Cl)c6)C5(C)C)cn4)CC3)no2)C(C)C)cc1 [Example 831]	> 71%
Cc1ncsc1-c1ccc([C@H](C)NC(=O)[C@@H]2C[C@H](F)CN2C(=O)[C@@H](NC(=O)COCCN2CCN(c3ccc(C(=O)N[C@H]4C(C)(C)[C@H](Oc5ccc(C#N)c(Cl)c5)C4(C)C)cn3)CC2)C(C)(C)C)cc1 [Example 721]	< 25%
Cc1ncsc1-c1ccc([C@H](C)NC(=O)[C@@H]2C[C@@H](O)CN2C(=O)[C@@H](NC(=O)COCCCCCNc2ccc(C(=O)N[C@H]3C(C)(C)[C@H](Oc4ccc(C#N)c(Cl)c4)C3(C)C)nn2)C(C)(C)C)cc1 [Example 607]	26 to 50%
CC(NC(=O)C1CC(O)CN1C(=O)C(c1cc(OCCN2CCN(c3ccc(C(=O)NC4C(C)(C)C(Oc5ccc(C#N)c(Cl)c5)C4(C)C)cn3)CC2)no1)C(C)C)c1ccc(C#N)cc1 (stereo not shown) [Example 697]	26 to 50%
Cc1ncsc1-c1ccc([C@H](C)NC(=O)[C@@H]2C[C@@H](O)CN2C(=O)[C@@H](NC(=O)COCCCCOc2ccc(-c3ccc(C(=O)N[C@H]4C(C)(C)[C@H](Oc5ccc(C#N)c(Cl)c5)C4(C)C)cc3)cc2)C(C)(C)C)cc1 [Example 630]	> 71%

====

Listed here are molecules together with their documented DC50.
Target: Androgen Receptor (Homo sapiens, UniProt P10275+P40337, T878A)
Construct: Compounds have been evaluated in this assay in LNCaP and/or VCaP cells utilizing similar protocols; endogenous in cells; host or cells: LNCaP cells
Test: Androgen Receptor ELISA assay (PathScan AR ELISA) in LNCaP cells: AR degradation, Dmax and DC50
Type: cell-based
Conditions: concentration that caused 50% Androgen Receptor degradation

MOLECULE	TESTED ON	DC50
Cc1ncsc1-c1ccc([C@H](C)NC(=O)[C@@H]2C[C@@H](O)CN2C(=O)[C@@H](NC(=O)COCCCOCCCCCOc2c(F)cc(N3C(=S)N(c4ccc(C#N)c(C(F)(F)F)c4)C(=O)C3(C)C)cc2F)C(C)(C)C)cc1 [Example 11]	Androgen Receptor (Homo sapiens, UniProt P10275+P40337, T878A)	< 0.05 µM
Cc1ncsc1-c1ccc(CNC(=O)[C@@H]2C[C@@H](O)CN2C(=O)[C@@H](NC(=O)CCOCCOc2ccc(-c3ccc(N4C(=S)N(c5ccc(C#N)c(C(F)(F)F)c5)C(=O)C4(C)C)cc3)cc2)C(C)(C)C)cc1 [Example 70]	Androgen Receptor (Homo sapiens, UniProt P10275+P40337, T878A)	< 0.05 µM
Cc1ncsc1-c1ccc(CNC(=O)C2C[C@@H](O)CN2C(=O)[C@H](C(C)C)N2Cc3ccccc3C2=O)c(OCCOCCOCCOc2ccc(N3C(=O)N(c4ccc(C#N)c(C(F)(F)F)c4)C(=O)C3(C)C)cc2)c1 (stereo partly shown) [Example 235]	Androgen Receptor (Homo sapiens, UniProt P10275+P40337, T878A)	0.051 to 0.5 µM
Cc1ncsc1-c1ccc(CNC(=O)[C@@H]2C[C@@H](O)CN2C(=O)[C@@H](NC(=O)CCCCOCCCCCOc2ccc(N3C(=S)N(c4ccc(C#N)c(C(F)(F)F)c4)C(=O)C3(C)C)cc2)C(C)(C)C)cc1 [Example 246]	Androgen Receptor (Homo sapiens, UniProt P10275+P40337, T878A)	0.051 to 0.5 µM

====

Target: Androgen Receptor (Homo sapiens)
Construct: endogenous in cells; host or cells: VCaP cells
Sequence (P10275 1-920): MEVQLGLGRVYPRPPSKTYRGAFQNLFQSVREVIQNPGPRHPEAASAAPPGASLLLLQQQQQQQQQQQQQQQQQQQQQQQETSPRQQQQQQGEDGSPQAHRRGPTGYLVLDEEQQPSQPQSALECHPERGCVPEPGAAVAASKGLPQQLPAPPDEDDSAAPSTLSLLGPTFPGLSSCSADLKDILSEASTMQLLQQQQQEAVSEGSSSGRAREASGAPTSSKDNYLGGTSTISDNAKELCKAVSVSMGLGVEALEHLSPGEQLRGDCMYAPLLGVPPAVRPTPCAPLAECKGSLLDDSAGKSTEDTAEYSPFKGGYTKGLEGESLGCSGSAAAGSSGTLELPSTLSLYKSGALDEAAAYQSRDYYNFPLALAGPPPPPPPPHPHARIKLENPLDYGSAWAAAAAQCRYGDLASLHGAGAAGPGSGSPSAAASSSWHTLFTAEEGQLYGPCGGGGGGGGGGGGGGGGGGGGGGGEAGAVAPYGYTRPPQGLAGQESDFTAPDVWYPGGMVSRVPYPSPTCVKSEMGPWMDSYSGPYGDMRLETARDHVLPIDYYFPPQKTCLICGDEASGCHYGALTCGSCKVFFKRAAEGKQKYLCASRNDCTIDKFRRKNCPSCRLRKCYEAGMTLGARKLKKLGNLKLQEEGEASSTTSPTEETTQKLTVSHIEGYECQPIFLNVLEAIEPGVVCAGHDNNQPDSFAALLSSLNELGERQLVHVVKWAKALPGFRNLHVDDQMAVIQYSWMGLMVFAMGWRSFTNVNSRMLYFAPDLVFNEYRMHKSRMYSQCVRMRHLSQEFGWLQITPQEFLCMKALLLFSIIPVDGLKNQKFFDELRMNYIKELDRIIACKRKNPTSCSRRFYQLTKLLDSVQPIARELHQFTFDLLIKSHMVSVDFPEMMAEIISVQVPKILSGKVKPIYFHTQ
Test: Androgen Receptor ELISA assay (PathScan AR ELISA) in VCaP cells: AR degradation, Dmax and DC50
Type: cell-based
Conditions: read-out: VCaP DC50; concentration that caused 50% Androgen Receptor degradation, VCaP cells
The reader will find reported DC50 values listed item by item below.

SMILES CODE	DC50
Cc1ncsc1-c1ccc(CNC(=O)[C@@H]2C[C@@H](O)CN2C(=O)[C@@H](NC(=O)COCCCOCCCCCOc2ccc(N3C(=S)N(c4ccc(C#N)c(C(F)(F)F)c4)C(=O)C3(C)C)cc2)C(C)(C)C)cc1	< 50 nM
Cc1ncsc1-c1ccc(CNC(=O)[C@@H]2C[C@@H](O)CN2C(=O)[C@@H](NC(=O)COCCCCCOc2ccc(-c3ccc(N4C(=S)N(c5ccc(C#N)c(C(F)(F)F)c5)C(=O)C4(C)C)cc3)cc2)C(C)(C)C)cc1	< 50 nM
Cc1ncsc1-c1ccc(CNC(=O)[C@@H]2C[C@@H](O)CN2C(=O)[C@@H](NC(=O)OCCOCCOc2ccc(-c3ccc(N4C(=S)N(c5ccc(C#N)c(C(F)(F)F)c5)C(=O)C4(C)C)cc3)cc2)C(C)(C)C)cc1	51 to 500 nM
CC(C)(C)[C@H](NC(=O)COCCCOCCCCOc1ccc(N2C(=S)N(c3ccc(C#N)c(C(F)(F)F)c3)C(=O)C2(C)C)cc1)C(=O)N1C[C@H](O)C[C@H]1C(=O)NCc1ccc(-c2cnco2)cc1	< 50 nM
CC(C)(C)[C@H](NC(=O)COCCCOCCCCOc1ccc(N2C(=S)N(c3ccc(C#N)c(C(F)(F)F)c3)C(=O)C2(C)C)cc1)C(=O)N1C[C@H](O)C[C@H]1C(=O)NCc1ccc(-c2cncs2)cc1	< 50 nM
